experiment: physchem; type: physicochemical
outcome-measure: increase of the initial solubility of tritoqualine in water

CC(=O)O.CCOc1c(N)c2c(c(OCC)c1OCC)C(C1c3c(cc4c(c3OC)OCO4)CCN1C)OC2=O (stereo not drawn) [Tritoqualine acetate, tritoqualine acetate]
1500 times
CCOc1c(N)c2c(c(OCC)c1OCC)C(C1c3c(cc4c(c3OC)OCO4)CCN1C)OC2=O.Cl (stereo not drawn) [Tritoqualine hydrochloride, tritoqualine hydrochloride]
500 times

**Q:** State the recorded increase of the initial solubility of tritoqualine in water for this entry: CCOc1c(N)c2c(c(OCC)c1OCC)C(C1c3c(cc4c(c3OC)OCO4)CCN1C)OC2=O.O=C(O)C=CC(=O)O (stereo not drawn) [Tritoqualine fumarate, tritoqualine fumarate]
**A:** 15 000 times

**Q:** Can you look up the measured increase of the initial solubility of tritoqualine in water of CC1(C)C2CCC1(CS(=O)(=O)O)C(=O)C2.CCOc1c(N)c2c(c(OCC)c1OCC)C(C1c3c(cc4c(c3OC)OCO4)CCN1C)OC2=O (stereo not drawn) [Tritoqualine camphorsulfonate, tritoqualine camphorsulfonate] for me?
**A:** 11 000 times

**Q:** Name the reported increase of the initial solubility of tritoqualine in water value associated with the molecule CCOc1c(N)c2c(c(OCC)c1OCC)C(C1c3c(cc4c(c3OC)OCO4)CCN1C)OC2=O.O=P(O)(O)O (stereo not drawn) [Tritoqualine phosphate, tritoqualine phosphate]
**A:** 31 000 times

**Q:** Give the measured increase of the initial solubility of tritoqualine in water of CCOc1c(N)c2c(c(OCC)c1OCC)C(C1c3c(cc4c(c3OC)OCO4)CCN1C)OC2=O.CS(=O)(=O)O (stereo not drawn) [Tritoqualine methylsulfonate, tritoqualine methylsulfonate] .
**A:** 50 000 times
